System: SARS-CoV (strain Urbani)
TEST PROTOCOL: microbe, parasite or virus in culture
Type: cell-based
RUN CONDITIONS: read-out: Neutral red uptake assay EC50
Peptide text beside a SMILES is read from it.
Values of EC50 strictly less than 10 µM map to 1, and values of at least 10 µM map to 0.

{"COMPOUND": "OCCCN1c2ccccc2Sc2ccc(Cl)cc21", "ASSIGNED CATEGORY": 0}
{"COMPOUND": "OCCN1CCN(CCCN2c3ccccc3Sc3ccc(Cl)cc32)CC1", "ASSIGNED CATEGORY": 1}
{"COMPOUND": "CC(C)C[C@H](NC(=O)OCc1ccccc1)C(=O)N[C@@H](CC(C)C)C(=O)N[C@@H](Cc1ccc(O)cc1)C(=O)CF [Calpain Inhibitor IV] (HELM PEPTIDE1{[O=C(OCc1ccccc1)[*:2]].L.L.Y.[FC[*:1]]}$$$$V2.0)", "ASSIGNED CATEGORY": 1}
{"COMPOUND": "CCOS(=O)(=O)[O-].CC[n+]1c2ccccc2nc2ccccc21 [Phenazine ethosulfate]", "ASSIGNED CATEGORY": 1}
{"COMPOUND": "CN(C)CCCN1c2ccccc2Sc2ccc(C(F)(F)F)cc21.Cl [Trifluopromazine·HCl]", "ASSIGNED CATEGORY": 0}
